FYI, the data here is from ChEMBL document CHEMBL5042544.

target or test system: Bromodomain testis-specific protein (Homo sapiens, UniProt Q58F21)
assay method text: Binding affinity to human BRDT bromodomain 1 assessed as dissociation constant by BROMOscan method
parameter measured: Kd (nM)

Cc1nnc2c(NC3CCN(CC(C)(C)F)CC3)cc(C(=O)N3[C@@H]4c5ccccc5C[C@H]3C(=O)N[C@@H]4C(C)C)nn12 | 200

* * *

target or test system: ATPase family AAA domain-containing protein 2 (Homo sapiens, UniProt Q6PL18)
Sequence (Q6PL18 whole entry, the tested form may be a part): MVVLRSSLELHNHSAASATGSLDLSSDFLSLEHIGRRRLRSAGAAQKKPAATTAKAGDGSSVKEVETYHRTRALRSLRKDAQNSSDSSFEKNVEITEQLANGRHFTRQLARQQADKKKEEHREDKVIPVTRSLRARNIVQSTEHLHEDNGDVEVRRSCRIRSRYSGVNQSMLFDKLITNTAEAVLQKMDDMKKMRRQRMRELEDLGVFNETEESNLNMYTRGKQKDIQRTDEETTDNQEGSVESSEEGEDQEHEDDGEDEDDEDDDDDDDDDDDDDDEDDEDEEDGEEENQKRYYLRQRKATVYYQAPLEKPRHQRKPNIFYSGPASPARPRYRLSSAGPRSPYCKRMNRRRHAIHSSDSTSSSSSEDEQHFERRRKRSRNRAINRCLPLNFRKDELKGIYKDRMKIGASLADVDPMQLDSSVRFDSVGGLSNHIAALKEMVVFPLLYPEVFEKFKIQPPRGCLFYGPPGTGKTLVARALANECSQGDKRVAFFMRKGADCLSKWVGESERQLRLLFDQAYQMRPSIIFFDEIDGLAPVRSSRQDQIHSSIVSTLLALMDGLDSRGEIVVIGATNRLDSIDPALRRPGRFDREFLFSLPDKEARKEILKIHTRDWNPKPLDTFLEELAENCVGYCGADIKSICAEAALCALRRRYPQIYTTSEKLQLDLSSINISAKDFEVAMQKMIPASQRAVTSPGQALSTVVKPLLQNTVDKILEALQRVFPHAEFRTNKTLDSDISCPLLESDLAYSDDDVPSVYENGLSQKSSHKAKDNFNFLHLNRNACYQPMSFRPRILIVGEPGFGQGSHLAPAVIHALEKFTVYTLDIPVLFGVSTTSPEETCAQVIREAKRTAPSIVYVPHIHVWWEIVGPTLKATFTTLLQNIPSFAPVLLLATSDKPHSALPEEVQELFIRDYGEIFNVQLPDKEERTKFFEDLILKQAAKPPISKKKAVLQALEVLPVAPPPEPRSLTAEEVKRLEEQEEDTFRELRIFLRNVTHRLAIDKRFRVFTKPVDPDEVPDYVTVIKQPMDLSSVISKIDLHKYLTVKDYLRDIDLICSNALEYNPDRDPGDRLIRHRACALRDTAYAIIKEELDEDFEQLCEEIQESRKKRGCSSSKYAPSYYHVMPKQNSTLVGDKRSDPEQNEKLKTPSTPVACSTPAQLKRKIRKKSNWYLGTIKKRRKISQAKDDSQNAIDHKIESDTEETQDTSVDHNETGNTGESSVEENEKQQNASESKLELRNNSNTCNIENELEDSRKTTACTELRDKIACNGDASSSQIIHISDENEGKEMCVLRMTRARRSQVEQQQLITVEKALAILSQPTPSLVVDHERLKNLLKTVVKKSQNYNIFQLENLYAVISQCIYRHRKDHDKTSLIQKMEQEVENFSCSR
assay method text: Displacement of Halo-tagged Histone H3.3 from Nanoluc-ATAD2 BD (962 to 1119 residues) (unknown origin) transfected in human HCT116 cells incubated for 18 hrs in presence of efflux inhibitor verapamil by NanoBRET assay
Format: cell-based, HCT-116
pIC50: −log10 of the molar value.
Reported pIC50 by item:
parameter measured: pIC50

C[C@H]1NC(=O)[C@@H]2Cc3ccccc3[C@H]1N2C(=O)c1cn(C)c(=O)c2[nH]c3ccc(OC(F)(F)F)cc3c12 | 6.30
Cc1nnc2c(NC3CCN(CC(C)(F)F)CC3)cc(C(=O)N3[C@@H]4c5ccccc5C[C@H]3C(=O)N[C@@H]4C(C)C)nn12 | 6.30
Cc1nnc2c(NC3CCN(CC(C)(C)F)CC3)cc(C(=O)N3[C@@H]4c5ccccc5C[C@H]3C(=O)N[C@@H]4C(C)C)nn12 | 7.30

* * *

target or test system: Bromodomain-containing protein 2 (Homo sapiens, UniProt P25440)
Sequence (P25440 whole entry): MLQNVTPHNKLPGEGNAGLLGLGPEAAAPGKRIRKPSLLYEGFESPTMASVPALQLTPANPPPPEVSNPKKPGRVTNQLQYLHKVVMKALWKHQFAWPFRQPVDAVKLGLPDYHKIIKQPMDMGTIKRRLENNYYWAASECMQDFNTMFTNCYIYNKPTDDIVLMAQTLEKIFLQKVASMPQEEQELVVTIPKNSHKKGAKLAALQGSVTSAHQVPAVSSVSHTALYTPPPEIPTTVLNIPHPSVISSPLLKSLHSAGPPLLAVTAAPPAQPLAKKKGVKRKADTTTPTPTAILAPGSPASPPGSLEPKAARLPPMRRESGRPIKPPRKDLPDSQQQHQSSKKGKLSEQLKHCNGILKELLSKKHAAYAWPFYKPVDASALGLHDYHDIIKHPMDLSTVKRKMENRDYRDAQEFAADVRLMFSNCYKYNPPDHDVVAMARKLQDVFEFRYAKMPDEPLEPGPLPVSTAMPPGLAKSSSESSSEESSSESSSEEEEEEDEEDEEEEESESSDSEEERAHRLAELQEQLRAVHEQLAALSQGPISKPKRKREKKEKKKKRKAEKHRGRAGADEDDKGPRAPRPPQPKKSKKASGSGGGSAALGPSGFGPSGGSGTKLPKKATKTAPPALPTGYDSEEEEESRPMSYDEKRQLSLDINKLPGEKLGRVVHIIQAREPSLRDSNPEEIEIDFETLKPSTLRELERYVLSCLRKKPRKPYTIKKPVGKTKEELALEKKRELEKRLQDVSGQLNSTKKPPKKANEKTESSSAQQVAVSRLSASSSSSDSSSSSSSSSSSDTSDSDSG
assay method text: Binding affinity to human BRD2 bromodomain 1 assessed as dissociation constant by BROMOscan method
parameter measured: Kd (nM)

Cc1nnc2c(NC3CCN(CC(C)(C)F)CC3)cc(C(=O)N3[C@@H]4c5ccccc5C[C@H]3C(=O)N[C@@H]4C(C)C)nn12 | 126

* * *

target or test system: Histone acetyltransferase p300 (Homo sapiens, UniProt Q09472)
Sequence (Q09472 whole entry): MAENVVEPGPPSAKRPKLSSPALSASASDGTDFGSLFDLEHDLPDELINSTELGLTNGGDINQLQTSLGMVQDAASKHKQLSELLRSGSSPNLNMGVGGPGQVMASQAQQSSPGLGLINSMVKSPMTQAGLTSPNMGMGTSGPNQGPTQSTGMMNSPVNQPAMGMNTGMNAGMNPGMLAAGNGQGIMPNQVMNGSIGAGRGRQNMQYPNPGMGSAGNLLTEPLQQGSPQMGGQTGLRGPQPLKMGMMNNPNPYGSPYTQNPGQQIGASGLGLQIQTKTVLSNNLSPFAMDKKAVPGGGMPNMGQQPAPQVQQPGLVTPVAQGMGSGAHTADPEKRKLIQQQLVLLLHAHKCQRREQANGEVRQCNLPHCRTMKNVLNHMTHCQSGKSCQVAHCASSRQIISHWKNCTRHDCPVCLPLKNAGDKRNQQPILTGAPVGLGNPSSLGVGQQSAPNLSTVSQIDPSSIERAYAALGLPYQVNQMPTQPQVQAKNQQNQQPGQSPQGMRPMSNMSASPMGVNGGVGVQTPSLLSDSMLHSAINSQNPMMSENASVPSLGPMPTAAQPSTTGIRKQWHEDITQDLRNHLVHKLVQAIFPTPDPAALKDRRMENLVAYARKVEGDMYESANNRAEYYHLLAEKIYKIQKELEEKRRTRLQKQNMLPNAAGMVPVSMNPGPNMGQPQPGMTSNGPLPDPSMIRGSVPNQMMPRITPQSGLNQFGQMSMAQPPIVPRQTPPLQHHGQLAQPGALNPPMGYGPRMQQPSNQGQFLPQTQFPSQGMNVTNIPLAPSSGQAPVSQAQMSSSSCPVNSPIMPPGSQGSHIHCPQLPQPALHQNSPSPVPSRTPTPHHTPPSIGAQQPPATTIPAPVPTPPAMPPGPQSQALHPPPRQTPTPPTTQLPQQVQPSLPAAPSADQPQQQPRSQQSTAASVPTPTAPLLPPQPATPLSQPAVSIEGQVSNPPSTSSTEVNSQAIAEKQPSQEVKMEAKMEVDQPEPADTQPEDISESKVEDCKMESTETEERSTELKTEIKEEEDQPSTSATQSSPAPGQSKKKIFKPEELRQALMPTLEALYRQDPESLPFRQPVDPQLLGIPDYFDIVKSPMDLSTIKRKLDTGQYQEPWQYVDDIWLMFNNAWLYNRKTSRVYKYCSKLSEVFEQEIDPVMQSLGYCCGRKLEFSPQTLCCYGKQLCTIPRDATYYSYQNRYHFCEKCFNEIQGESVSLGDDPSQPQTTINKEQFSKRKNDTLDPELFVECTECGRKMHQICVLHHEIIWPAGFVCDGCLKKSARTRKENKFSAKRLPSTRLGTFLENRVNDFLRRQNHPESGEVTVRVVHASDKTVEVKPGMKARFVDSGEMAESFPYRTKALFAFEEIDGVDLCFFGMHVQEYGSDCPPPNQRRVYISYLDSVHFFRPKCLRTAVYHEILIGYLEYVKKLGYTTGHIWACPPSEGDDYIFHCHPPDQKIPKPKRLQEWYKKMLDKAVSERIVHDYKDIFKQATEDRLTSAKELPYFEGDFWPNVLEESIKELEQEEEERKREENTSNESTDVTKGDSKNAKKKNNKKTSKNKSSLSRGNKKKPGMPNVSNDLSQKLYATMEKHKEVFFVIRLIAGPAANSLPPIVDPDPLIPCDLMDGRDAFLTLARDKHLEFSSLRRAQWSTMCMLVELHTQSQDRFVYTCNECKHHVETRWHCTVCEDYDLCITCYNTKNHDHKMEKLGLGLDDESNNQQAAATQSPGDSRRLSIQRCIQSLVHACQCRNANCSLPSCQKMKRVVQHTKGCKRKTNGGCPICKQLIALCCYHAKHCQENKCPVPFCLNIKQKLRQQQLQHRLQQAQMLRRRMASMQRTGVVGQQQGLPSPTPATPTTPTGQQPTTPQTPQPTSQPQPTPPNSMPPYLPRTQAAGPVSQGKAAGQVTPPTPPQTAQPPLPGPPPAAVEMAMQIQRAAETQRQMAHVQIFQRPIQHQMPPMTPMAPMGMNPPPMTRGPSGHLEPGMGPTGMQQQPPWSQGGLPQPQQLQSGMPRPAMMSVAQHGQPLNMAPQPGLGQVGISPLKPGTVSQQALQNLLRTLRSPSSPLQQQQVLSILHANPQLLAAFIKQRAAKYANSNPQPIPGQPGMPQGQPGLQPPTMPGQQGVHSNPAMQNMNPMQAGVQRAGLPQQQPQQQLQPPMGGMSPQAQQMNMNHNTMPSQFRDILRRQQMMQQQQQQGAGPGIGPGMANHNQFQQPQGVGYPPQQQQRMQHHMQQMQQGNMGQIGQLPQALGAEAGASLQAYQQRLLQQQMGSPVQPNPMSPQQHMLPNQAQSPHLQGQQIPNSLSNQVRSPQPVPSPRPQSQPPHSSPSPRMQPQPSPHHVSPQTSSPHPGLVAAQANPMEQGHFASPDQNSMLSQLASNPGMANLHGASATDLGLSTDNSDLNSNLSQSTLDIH
assay method text: Binding affinity to human EP300 bromodomain assessed as dissociation constant by BROMOscan method
parameter measured: Kd

Cc1nnc2c(NC3CCN(CC(C)(C)F)CC3)cc(C(=O)N3[C@@H]4c5ccccc5C[C@H]3C(=O)N[C@@H]4C(C)C)nn12 | > 3.16 µM

* * *

target or test system: Bromodomain-containing protein 2 (Homo sapiens)
assay method text: Binding affinity to human BRD2 bromodomain 2 assessed as dissociation constant by BROMOscan method
parameter measured: Kd (nM)

Cc1nnc2c(NC3CCN(CC(C)(C)F)CC3)cc(C(=O)N3[C@@H]4c5ccccc5C[C@H]3C(=O)N[C@@H]4C(C)C)nn12 | 200

* * *

target or test system: Nucleosome-remodeling factor subunit BPTF (Homo sapiens)
assay method text: Binding affinity to human FALZ bromodomain by BROMOscan method
parameter measured: Kd

Cc1nnc2c(NC3CCN(CC(C)(C)F)CC3)cc(C(=O)N3[C@@H]4c5ccccc5C[C@H]3C(=O)N[C@@H]4C(C)C)nn12 | > 0.316 µM

* * *

target or test system: Bromodomain-containing protein 4 (Homo sapiens)
assay method text: Displacement of Halo-tagged Histone H3.3 from Nanoluc-BRD4 BD1/BD2 (44 to 460 residues) (unknown origin) transfected in human HCT116 cells incubated for 18 hrs by NanoBRET assay
Type: cell-based, HCT-116
pIC50: −log10 of the molar value.
parameter measured: pIC50

Cc1nnc2c(NC3CCN(CC(C)(F)F)CC3)cc(C(=O)N3[C@@H]4c5ccccc5C[C@H]3C(=O)N[C@@H]4C(C)C)nn12 | 4.30
Cc1nnc2c(NC3CCN(CC(C)(C)F)CC3)cc(C(=O)N3[C@@H]4c5ccccc5C[C@H]3C(=O)N[C@@H]4C(C)C)nn12 | 5.00
C[C@H]1NC(=O)[C@@H]2Cc3ccccc3[C@H]1N2C(=O)c1cn(C)c(=O)c2[nH]c3ccc(OC(F)(F)F)cc3c12 | 3.90
Cc1nnc2c(NCCCN3CCCC3)cc(C(=O)N3[C@@H]4c5ccccc5C[C@H]3C(=O)N[C@@H]4C(C)C)nn12 | 4.60
Cc1nnc2c(NC3CCN(C)CC3)cc(C(=O)N3[C@H]4Cc5ccccc5[C@@H]3CNC4=O)nn12 | 4.50
Cc1nnc2c(NCCCN3CCC(F)(F)CC3)cc(C(=O)N3[C@@H]4c5ccccc5C[C@H]3C(=O)N[C@@H]4C(C)C)nn12 | 4.50
